meta.source: ChEMBL document CHEMBL1158800

Experiment: Growth inhibition of human MXPC3 cells after 48 hrs by particle counting method
Format: functional
Details: MXPC3, 48 h
Could you please report measured GI50 for the items listed next?
The number alone won't do; follow it with the unit.

Worked set:
>>> val("CCCCCCCCCCC/C=C/[C@@H](O)[C@H](CO[C@@H]1O[C@H](CO)[C@@H](O)[C@H](O)[C@H]1O)NC(=O)CCCCCCCCCCCCCCC [TURBOSTATIN 1]")
"0.71 µg/mL"
>>> val("CCCCCCCCCCC/C=C/[C@@H](O)[C@H](CO[C@@H]1O[C@H](CO)[C@@H](O)[C@H](O)[C@H]1O)NC(=O)CCCCCCCCCCCCCCCCC [TURBOSTATIN 2]")
"1 µg/mL"
>>> val("CCCCCCCCCCC/C=C/[C@@H](O)[C@H](CO[C@@H]1O[C@H](CO)[C@H](O)[C@H](O)[C@H]1O)NC(=O)CCCCCCCCCCCCCCC [TURBOSTATIN 3]")
"1.6 µg/mL"

Problem: Can you share its GI50? I mean this compound: CCCCCCCCCCC/C=C/[C@@H](O)[C@H](CO[C@@H]1O[C@H](CO)[C@H](O)[C@H](O)[C@H]1O)NC(=O)CCCCCCCCCCCCCCCCC [TURBOSTATIN 4]
Result: 0.93 µg/mL

* * *

Could you please report measured GI50 for the items listed next?
Test system: SF-268
Assay: Growth inhibition of human SF268 cells after 48 hrs by particle counting method
Type: functional
Settings: SF-268, 48 h
One number for each entry, in µg/mL.

Worked set:
>>> val("CCCCCCCCCCC/C=C/[C@@H](O)[C@H](CO[C@@H]1O[C@H](CO)[C@H](O)[C@H](O)[C@H]1O)NC(=O)CCCCCCCCCCCCCCC")
1.9
>>> val("CCCCCCCCCCC/C=C/[C@@H](O)[C@H](CO[C@@H]1O[C@H](CO)[C@H](O)[C@H](O)[C@H]1O)NC(=O)CCCCCCCCCCCCCCCCC")
1.5

Below are some molecules; for each one, tell me its GI50.
1. CCCCCCCCCCC/C=C/[C@@H](O)[C@H](CO[C@@H]1O[C@H](CO)[C@@H](O)[C@H](O)[C@H]1O)NC(=O)CCCCCCCCCCCCCCCCC
2. CCCCCCCCCCC/C=C/[C@@H](O)[C@H](CO[C@@H]1O[C@H](CO)[C@@H](O)[C@H](O)[C@H]1O)NC(=O)CCCCCCCCCCCCCCC

Result:
1.9
0.98
